Values were extracted from patent US4051244A.

assay: LD 50 in the mouse, oral (cumulative method of Reed and Muench); settings: in vivo
Measurement type: LD50 (mg/kg)

{"Molecular string": "CN1CCN(c2nc(N)nc(Cl)c2Br)CC1", "Comparison operator": "=", "Measured": 600}
{"Molecular string": "CC(C)Nc1nc(N2CCN(C)CC2)nc(Cl)c1Br", "Comparison operator": "=", "Measured": 675}
{"Molecular string": "CC(C)Nc1nc(Cl)c(Br)c(N2CCN(C)CC2)n1", "Comparison operator": "=", "Measured": 200}
{"Molecular string": "CCCCCCCNc1nc(Cl)c(Br)c(N2CCN(C)CC2)n1", "Comparison operator": ">", "Measured": 900}
{"Molecular string": "Cc1ccc(N(C)c2nc(Cl)c(Br)c(NCCN(C(C)C)C(C)C)n2)cc1", "Comparison operator": "=", "Measured": 675}
{"Molecular string": "CNc1nc(Cl)c(Br)c(N2CCN(C)CC2)n1", "Comparison operator": "=", "Measured": 100}
{"Molecular string": "Cc1ccc(N(C)c2nc(Cl)c(Br)c(N3CCN(C)CC3)n2)cc1", "Comparison operator": ">", "Measured": 900}
